The measurements presented in this section are drawn from the supplement of paper PMC3545927.

target: furin, P09958; assay: furin cleavage Z-score vs untreated control; higher = more cleavage, active = 3.5 or more, inactive = 1 or less, 8 variable residues between constant flanks; settings: 30 min;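 further: purified furin at 1:10 enzyme:substrate in 50 mM HEPES pH 7.5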
Sequence (P09958 whole entry): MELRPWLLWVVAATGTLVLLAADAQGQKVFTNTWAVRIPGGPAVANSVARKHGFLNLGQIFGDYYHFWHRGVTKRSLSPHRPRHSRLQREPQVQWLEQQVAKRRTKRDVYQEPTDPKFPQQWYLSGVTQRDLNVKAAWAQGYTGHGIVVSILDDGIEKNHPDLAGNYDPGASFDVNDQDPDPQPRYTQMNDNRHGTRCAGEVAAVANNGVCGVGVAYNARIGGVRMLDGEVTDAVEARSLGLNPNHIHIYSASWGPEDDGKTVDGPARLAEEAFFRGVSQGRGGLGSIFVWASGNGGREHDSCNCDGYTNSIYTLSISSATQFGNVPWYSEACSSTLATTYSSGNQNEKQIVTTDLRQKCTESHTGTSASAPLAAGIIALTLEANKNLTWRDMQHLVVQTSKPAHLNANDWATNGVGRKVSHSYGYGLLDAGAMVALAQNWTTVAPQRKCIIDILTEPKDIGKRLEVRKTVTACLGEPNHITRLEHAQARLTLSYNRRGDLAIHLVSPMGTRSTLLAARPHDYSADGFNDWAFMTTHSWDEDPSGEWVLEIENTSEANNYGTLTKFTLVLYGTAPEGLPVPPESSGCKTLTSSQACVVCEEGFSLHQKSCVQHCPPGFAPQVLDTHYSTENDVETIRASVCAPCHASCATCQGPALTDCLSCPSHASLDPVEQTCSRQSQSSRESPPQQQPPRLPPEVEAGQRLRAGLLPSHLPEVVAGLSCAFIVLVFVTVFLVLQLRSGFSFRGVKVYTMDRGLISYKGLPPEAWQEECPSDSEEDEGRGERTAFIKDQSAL
The list shows a part of the results. No count for the full screen is at hand.
Label true (1) when furin cleavage Z-score >= -0.3; otherwise false (0).

Study these solved cases before continuing.
INSERT INTO measurements (residue_sequence, class_label) VALUES
  ('CAVRVQGLLRAGNASASA [HC617]', 'false (0)'),
  ('CARSQRRKKAAGNASASA [FS-865]', 'true (1)'),
  ('CAFSQRRKRRAGNASASA [FS-775]', 'true (1)'),
  ('CARLSRGTRPAGNASASA [FS-1748]', 'true (1)'),
  ('CAEVVWSTWVAGNASASA [HC127]', 'false (0)'),
  ('CARKQRKKKAAGNASASA [FS-1262]', 'true (1)');

query: State whether the measured furin cleavage Z-score reaches -0.3, counting equality as reaching it, for CATLSTALAEAGNASASA [HC1330]
result: false (0)
